Consider the following compounds; for each one, report its RA.
organism: Oryctolagus cuniculus; experiment: Relative aggregant activity in rabbit platelets was determined; type: functional

Sample CCCCCCCCCCCCCCCCc1ccccc1OCC(COP(=O)([O-])OCC[N+](C)(C)C)OC(C)=O (stereo not given) ; RA observed: 0.002

Sample CCCCCCCCCCCCCCCC(=O)OCC(COP(=O)([O-])OCC[N+](C)(C)C)OC(C)=O (stereo not given) ; RA observed: 0.009

Sample CCCCCCCCCCOCCOCCOCC(COP(=O)([O-])OCC[N+](C)(C)C)OC(C)=O (stereo not given) ; RA observed: 0.28

Sample CCCCCCCCCCCCOCC(COP(=O)([O-])OCC[N+](C)(C)C)OC(C)=O (stereo not given) ; RA observed: 1.248

Sample CCCCCCCCCCCCCCCCCCOCC(COP(=O)([O-])OCC[N+](C)(C)C)OC(C)=O (stereo not given) ; RA observed: 1

Sample CCCCCCCCCCCCCCCCCCCCC(COP(=O)([O-])OCC[N+](C)(C)C)OC(C)=O (stereo not given) ; RA observed: 0

Sample CCCCCCCCCCOCC(COP(=O)([O-])OCC[N+](C)(C)C)OC(C)=O (stereo not given) ; RA observed: 1.048

Sample CCCCCCCCCCCCCCCCCC(=O)OCC(COP(=O)([O-])OCC[N+](C)(C)C)OC(C)=O (stereo not given) ; RA observed: 0.004

Sample CCCCCCCCCCCCCCCCOCC(COP(=O)([O-])OCC[N+](C)(C)C)OC(C)=O (stereo not given) ; RA observed: 1.268

Sample CCCCCCCCCCOc1ccc(COCC(COP(=O)([O-])OCC[N+](C)(C)C)OC(C)=O)cc1 (stereo not given) ; RA observed: 0.01

Sample CCCCCCOCC(COP(=O)([O-])OCC[N+](C)(C)C)OC(C)=O (stereo not given) ; RA observed: 0.003

Sample CCCCCCCCCCOCc1ccc(OCC(COP(=O)([O-])OCC[N+](C)(C)C)OC(C)=O)cc1 (stereo not given) ; RA observed: 0.01

Sample CCCCCCCCCCCCCCc1cccc(OCC(COP(=O)([O-])OCC[N+](C)(C)C)OC(C)=O)c1 (stereo not given) ; RA observed: 0.364

Sample CCCCCC/C=C/CCCCCCCCOCC(COP(=O)([O-])OCC[N+](C)(C)C)OC(C)=O (stereo not given) ; RA observed: 1.6

Sample CCCCCCCCCCCCCCCCCC(COP(=O)([O-])OCC[N+](C)(C)C)OC(C)=O (stereo not given) ; RA observed: 0.005

----------
organism: Oryctolagus cuniculus; experiment: Relative aggregant activity in rabbit platelets was determined; assay type: functional
Consider the following molecules; for each one, report its RA.
Could you keep your reply to the number by itself?

Sample CCCCCCCC/C=C/CCCCCCCCOCC(COP(=O)([O-])OCC[N+](C)(C)C)OC(C)=O (centres undefined) ; RA observed: 2

Sample CCCCC/C=C/C/C=C/CCCCCCCCOCC(COP(=O)([O-])OCC[N+](C)(C)C)OC(C)=O (centres undefined) ; RA observed: 2.667

Sample CCCCCCCCCCCCCCCCOCCC(COP(=O)([O-])OCC[N+](C)(C)C)OC(C)=O (centres undefined) ; RA observed: 0.015

Sample CCCCOCC(COP(=O)([O-])OCC[N+](C)(C)C)OC(C)=O (centres undefined) ; RA observed: 0.001

Sample COCCOCCOCCCCCCCCOCC(COP(=O)([O-])OCC[N+](C)(C)C)OC(C)=O (centres undefined) ; RA observed: 0.007

Sample CCCCCCCCCCCCCCCCCCC(COP(=O)([O-])OCC[N+](C)(C)C)OC(C)=O (centres undefined) ; RA observed: 0.022

Sample CCCCCCCCCCCCCCCCCCSCC(COP(=O)([O-])OCC[N+](C)(C)C)OC(C)=O (centres undefined) ; RA observed: 0

Sample CCCCCCCCCCCCCCCCCCCCOCC(COP(=O)([O-])OCC[N+](C)(C)C)OC(C)=O (centres undefined) ; RA observed: 0.8

Sample CCCCCCCCCCCCCCc1ccc(OCC(COP(=O)([O-])OCC[N+](C)(C)C)OC(C)=O)cc1 (centres undefined) ; RA observed: 0.302
